Value source: patent US20230192839A1

Test system: human CD33
Test: Biacore SPR binding kinetics of anti-CD33 scFv-Fc clones with or without 10 µM MTX
Details: CD33; 10 µM MTX; 37° C., pH 7.4; scFv-Fc
I'd be grateful if you could share measured kon, kinetics toward antigen with 10 µM MTX for these entries.
Give the value; after it, write the unit.

Q) Reported kon, kinetics toward antigen with 10 µM MTX for P02_C02: anti-CD33 reference clone, less than 2-fold MTX effect; VH SEQ ID NO: 11, VL SEQ ID NO: 12 (antibody, V domains shown, Synthetic Antibody) VH: QVQLVESGGGLVQAGGSLRLSCAASRRSSRSWAMHWVRQAPGKGLEWVAVISYDGRLKYYADSVKGRFTISRDNAEYLVYLQMNSLRAEDTAVYYCAAEGGMGLDPWGQGTLVTVSS VL: DIQMTQSPSSLSASVGDRVTITCRASQTISSYLNWYQQKPGKAPKLLIYAASNLHSGVPSRFSGSGSGTDFTLTISSLQPEDFATYYCQQSYSSGTFGQGTKVEIK : what is it?
A) 110000 M⁻¹ s⁻¹

Q) Reported kon, kinetics toward antigen with 10 µM MTX for P04_C09: anti-CD33 clone with conditional affinity; VH SEQ ID NO: 23, VL SEQ ID NO: 24 (antibody, V domains shown, Synthetic Antibody) VH: QVQLVESGGGLVQAGGSLRLSCAASRRSSRSWAMHWVRQAPGKGLEWVAVISYDGRLKYYADSVKGRFTISRDNAEYLVYLQMNSLRAEDTAVYYCAAEANESDSGGIDVWGQGTLVTVSS VL: DIQMTQSPSSLSASVGDRVTITCRASQTIGGYLNWYQQKPGKAPKLLIYAASSLQSGVPSRFSGSGSGTDFTLTISSLQPEDFATYYCQQGYSSGAFGQGTKVEIK : what is it?
A) 44000 M⁻¹ s⁻¹

Q) Reported kon, kinetics toward antigen with 10 µM MTX for P07_C04: anti-CD33 clone with conditional affinity; VH SEQ ID NO: 25, VL SEQ ID NO: 26; also as scFv in CAR (antibody, V domains shown, Synthetic Antibody, also as scFv in CAR) VH: QVQLVESGGGLVQAGGSLRLSCAASRRSSRSWAMHWVRQAPGKGLEWVAVISYDGRLKYYADSVKGRFTISRDNAEYLVYLQMNSLRAEDTAVYYCAAEPDGEGTNGGLDIWGQGTLVTVSS VL: DIQMTQSPSSLSASVGDRVTITCRASQNISRYLNWYQQKPGKAPKLLIYSASSLQTGVPSRFSGSGSGTDFTLTISSLQPEDFATYYCQQSYSSGAFGQGTKVEIK : what is it?
A) 170000 M⁻¹ s⁻¹

Q) Reported kon, kinetics toward antigen with 10 µM MTX for P04_C05: anti-CD33 clone with conditional affinity; VH SEQ ID NO: 41, VL SEQ ID NO: 42 (antibody, V domains shown, Synthetic Antibody) VH: QVQLVESGGGLVQAGGSLRLSCAASRRSSRSWAMHWVRQAPGKGLEWVAVISYDGRLKYYADSVKGRFTISRDNAEYLVYLQMNSLRAEDTAVYYCAAGLPWTDYWGQGTLVTVSS VL: QSVLTQPPSASGTPGQRVTISCSGSNSNIGSNYVSWYQQLPGTAPKLLIYSNNQRPSGVPDRFSGSKSGTSASLAISGLRSEDEADYYCAAWDDRLSVVFGTGTKLTVL : what is it?
A) 45000 M⁻¹ s⁻¹
